Molecular target: Hepatocyte growth factor receptor (Homo sapiens) (UniProt P08581);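 further: each value is an averaged inhibition figure for MET, taken as the mean across measurements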
Sequence (P08581 whole entry): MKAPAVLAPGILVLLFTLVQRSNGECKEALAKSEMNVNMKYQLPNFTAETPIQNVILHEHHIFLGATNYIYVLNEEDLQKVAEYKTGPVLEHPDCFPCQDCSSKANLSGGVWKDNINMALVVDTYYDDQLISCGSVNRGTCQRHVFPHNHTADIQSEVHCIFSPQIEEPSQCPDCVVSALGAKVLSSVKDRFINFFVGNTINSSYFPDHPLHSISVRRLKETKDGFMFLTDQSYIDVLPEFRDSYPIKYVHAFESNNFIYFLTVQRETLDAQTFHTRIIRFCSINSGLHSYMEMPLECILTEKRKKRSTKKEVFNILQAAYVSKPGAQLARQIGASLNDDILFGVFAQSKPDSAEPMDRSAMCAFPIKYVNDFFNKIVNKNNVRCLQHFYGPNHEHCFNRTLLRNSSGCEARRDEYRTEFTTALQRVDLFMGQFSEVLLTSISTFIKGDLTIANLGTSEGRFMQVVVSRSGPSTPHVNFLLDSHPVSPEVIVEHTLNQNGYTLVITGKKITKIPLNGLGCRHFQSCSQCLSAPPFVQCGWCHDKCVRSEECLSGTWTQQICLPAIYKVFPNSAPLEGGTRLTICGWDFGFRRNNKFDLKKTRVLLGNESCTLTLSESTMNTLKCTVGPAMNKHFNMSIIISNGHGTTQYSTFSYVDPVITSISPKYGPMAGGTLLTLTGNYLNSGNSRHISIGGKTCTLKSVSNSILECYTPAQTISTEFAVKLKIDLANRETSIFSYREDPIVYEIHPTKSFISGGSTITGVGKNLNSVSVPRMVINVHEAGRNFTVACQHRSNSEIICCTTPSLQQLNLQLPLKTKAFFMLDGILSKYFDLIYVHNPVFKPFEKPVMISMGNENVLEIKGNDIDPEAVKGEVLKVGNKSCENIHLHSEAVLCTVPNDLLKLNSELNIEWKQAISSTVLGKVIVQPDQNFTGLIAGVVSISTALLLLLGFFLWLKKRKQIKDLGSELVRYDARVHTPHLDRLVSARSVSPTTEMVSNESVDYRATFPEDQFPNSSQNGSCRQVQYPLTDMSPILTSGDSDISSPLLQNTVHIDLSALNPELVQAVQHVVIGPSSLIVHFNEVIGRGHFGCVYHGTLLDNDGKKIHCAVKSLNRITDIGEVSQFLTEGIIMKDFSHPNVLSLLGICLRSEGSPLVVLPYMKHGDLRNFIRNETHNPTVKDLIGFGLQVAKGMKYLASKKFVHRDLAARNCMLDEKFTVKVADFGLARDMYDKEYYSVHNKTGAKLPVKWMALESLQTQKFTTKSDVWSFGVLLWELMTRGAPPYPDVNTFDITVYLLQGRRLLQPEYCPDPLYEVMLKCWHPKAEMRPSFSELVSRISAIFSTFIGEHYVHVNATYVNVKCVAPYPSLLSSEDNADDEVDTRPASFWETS
Conditions: at 1 µM
Label rule, in plain words: inhibition of 7% and up is met, under 7% is not met.

# Sample Smiles, Target Under Test, Class Label
records = [
    ("COc1ccc(-c2cc3c(N)ncnc3o2)cc1", "Hepatocyte growth factor receptor (Homo sapiens) (UniProt P08581)", "not met"),
    ("COc1cccc(-n2ncc3c(N/N=C/c4ccc(F)cc4)ncnc32)c1", "Hepatocyte growth factor receptor (Homo sapiens) (UniProt P08581)", "met"),
    ("[O-][S+]1CCN(Cc2ccc(-c3ccc4ncnc(Nc5ccc(OCc6cccc(F)c6)c(Cl)c5)c4c3)o2)CC1", "Hepatocyte growth factor receptor (Homo sapiens) (UniProt P08581)", "met"),
    ("Cc1ccc(O)cc1Nc1ccnc2cc(-c3ccccn3)ccc12", "Hepatocyte growth factor receptor (Homo sapiens) (UniProt P08581)", "not met"),
    ("CCn1c(-c2nonc2N)nc2ccccc21", "Hepatocyte growth factor receptor (Homo sapiens) (UniProt P08581)", "not met"),
    ("Fc1ccc(-c2cc(-c3c[nH]nc3-c3ccccn3)ccn2)cc1", "Hepatocyte growth factor receptor (Homo sapiens) (UniProt P08581)", "met"),
    ("CNC(=O)c1cc(-c2ccc(F)cc2)cc(-c2ccc(S(=O)(=O)N3CCCC3)cc2)c1N", "Hepatocyte growth factor receptor (Homo sapiens) (UniProt P08581)", "not met"),
    ("FC(F)(F)c1cccc(-c2nn3ncccc3c2-c2ccnc(Nc3ccc4c(c3)OCCO4)n2)c1", "Hepatocyte growth factor receptor (Homo sapiens) (UniProt P08581)", "not met"),
    ("Cc1cccc(Nc2ncc(-c3ccccc3)o2)c1", "Hepatocyte growth factor receptor (Homo sapiens) (UniProt P08581)", "not met"),
    ("CN1CCC(n2cnc(-c3ccc(F)cc3)c2-c2ccnc(N)n2)CC1", "Hepatocyte growth factor receptor (Homo sapiens) (UniProt P08581)", "not met"),
    ("CCCN(CCS(C)(=O)=O)Cc1ccc(-c2ccc3ncnc(Nc4ccc(OCc5cccc(F)c5)c(Cl)c4)c3c2)o1", "Hepatocyte growth factor receptor (Homo sapiens) (UniProt P08581)", "not met"),
    ("COc1ccc(-c2nn3ncccc3c2-c2ccnc(Nc3ccc4c(c3)OCCO4)n2)cc1", "Hepatocyte growth factor receptor (Homo sapiens) (UniProt P08581)", "met"),
    ("Nc1nc(-c2cccc(Cl)c2)c(-c2ccc3ncccc3n2)s1", "Hepatocyte growth factor receptor (Homo sapiens) (UniProt P08581)", "met"),
]
